TARGET DESC: Cytochrome P450 2D6 (Homo sapiens)
TEST: Cytochrome panel assay with activity outcomes
RUN PARAMETERS: recombinant CYP, pro-luciferin dealkylation, luminescence, p450-cyp2d6; series mostly up to 57.1 µM
Among all 16,000 compounds or so, about 2,600 (16%) were called active. Another 20% or so got no clear call; they are omitted. The call rests on the fitted dose curve; in most records, active means well fitted curve in the direction sought with a large enough effect; inconclusive means small, poorly fitted or top-dose-only effect, or effect the other way; inactive means no such curve, though single readings can be large or run the other way. The entries come from a sample that favours actives as a whole.
Entry note: the call must match one of 1 = active, 0 = inactive

INSERT INTO results (compound, label_value) VALUES
  ('CCN1C[C@]2(C)CC[C@@H](O)[C@]34[C@@H]5CC6[C@@H](OC)C[C@@](O)([C@H]5[C@@H]6O)[C@@H](C[C@@H]23)[C@H]14', 0),
  ('C=C(C)[C@H]1CC[C@]2(C(=O)O)CC[C@]3(C)[C@@H](CC[C@H]4[C@@]5(C)CC[C@@H](O)C(C)(C)[C@@H]5CC[C@@]43C)[C@H]12', 0),
  ('CC(C)CN1CC2(CCN(C(=O)c3ccncc3)CC2)C1', 1);

## Input Which outcome did this test record for the compound CNC(=S)NC1CC2CCCC(C1)N2CC(C)C (stereo not given) ?
## Output 1

## Input Which outcome did this test record for the compound "CCCCCCCC/C=C\CCCCCCCC(N)=O" ?
## Output 0

----------
TARGET DESC: Cytochrome P450 2D6 (Homo sapiens)
TEST: Cytochrome panel assay with activity outcomes
RUN PARAMETERS: recombinant CYP, pro-luciferin dealkylation, luminescence, p450-cyp2d6; series mostly up to 57.1 µM
Screen size: about 16,000 compounds; about 2,600 (16%) were called active. Not shown: some 20% with an inconclusive outcome. Calls come from the whole dose curve; as a rule, active = well fitted curve in the direction sought with a large enough effect; inconclusive = small, poorly fitted or top-dose-only effect, or effect the other way; inactive = no such curve, though single readings can be large or run the other way. The entries come from a sample that favours actives as a whole.
Entry note: the call must match one of label 1 = active, label 0 = inactive

Study these solved cases before continuing.
INSERT INTO assay_data (compound, label_value) VALUES
  ('CN1C(=O)CCS(=O)(=O)[C@H]1c1ccc(Cl)cc1', 'label 0'),
  ('C(#CCN1CCCC1)CN1CCCC1', 'label 0'),
  ('O=C(Oc1ccccc1)N1CCC2(CCCN(Cc3nccs3)C2)CC1', 'label 1'),
  ('Cc1cc(NC(=O)CCC(=O)N2CCC3(CC2)OCCO3)no1', 'label 0');

## Input Which outcome did this test record for the compound "N#CC(C#N)=Cc1cc(O)c(O)c(O)c1" ?
## Output label 0

## Input Which outcome did this test record for the compound "O=C(Nc1cccc(F)c1)N1CCCC2(CCN(C(=O)Oc3ccccc3)CC2)C1" ?
## Output label 0

----------
TARGET DESC: Cytochrome P450 2D6 (Homo sapiens) (UniProt P10635)
Sequence (P10635 whole entry, looked up): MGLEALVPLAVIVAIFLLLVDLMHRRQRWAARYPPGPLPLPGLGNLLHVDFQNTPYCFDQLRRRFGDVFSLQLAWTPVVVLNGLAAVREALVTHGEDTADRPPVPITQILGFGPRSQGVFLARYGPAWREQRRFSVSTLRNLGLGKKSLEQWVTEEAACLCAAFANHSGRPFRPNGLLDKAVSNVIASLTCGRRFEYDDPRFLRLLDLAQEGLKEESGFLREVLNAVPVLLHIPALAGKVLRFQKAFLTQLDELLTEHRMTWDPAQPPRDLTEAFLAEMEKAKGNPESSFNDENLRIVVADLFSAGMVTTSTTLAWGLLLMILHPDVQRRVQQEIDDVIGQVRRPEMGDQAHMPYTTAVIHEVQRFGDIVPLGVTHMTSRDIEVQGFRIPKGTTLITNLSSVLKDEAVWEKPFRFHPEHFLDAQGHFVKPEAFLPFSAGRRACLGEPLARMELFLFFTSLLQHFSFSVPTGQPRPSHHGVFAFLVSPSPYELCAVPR
TEST: Cytochrome panel assay with activity outcomes
RUN PARAMETERS: recombinant CYP, pro-luciferin dealkylation, luminescence, p450-cyp2d6; series mostly up to 57.1 µM
Among all 16,000 compounds or so, about 2,600 (16%) were called active. Inconclusive results (about 20%) are left out. Calls come from the whole dose curve; as a rule, active = well fitted curve in the direction sought with a large enough effect; inconclusive = small, poorly fitted or top-dose-only effect, or effect the other way; inactive = no such curve, though single readings can be large or run the other way. Many of the other results were omitted from the sample, so actives are more common in it than they were.
Entry note: the call must match one of active, inactive

INSERT INTO measurements (molecule, target_desc, label_value) VALUES
  ('c1ccc2nc(N3CCNCC3)ccc2c1', 'Cytochrome P450 2D6 (Homo sapiens) (UniProt P10635)', 'inactive'),
  ('C[C@@H]1[C@@H]2Cc3ccc(O)cc3[C@@]1(C)CCN2CC1CC1', 'Cytochrome P450 2D6 (Homo sapiens) (UniProt P10635)', 'active'),
  ('CC1=C(C)[N+](=O)C2(O)CCCCC2(C)N1[O-] (stereo unspecified)', 'Cytochrome P450 2D6 (Homo sapiens) (UniProt P10635)', 'inactive'),
  ('N#Cc1ccc(CN2CCCC3(CCN(C(=O)Oc4ccccc4)CC3)C2)cc1', 'Cytochrome P450 2D6 (Homo sapiens) (UniProt P10635)', 'inactive'),
  ('CCCCn1c(O)c(C(CC)=NCc2ccc(F)cc2)c(=O)[nH]c1=O', 'Cytochrome P450 2D6 (Homo sapiens) (UniProt P10635)', 'inactive'),
  ('N#Cc1ccc(CN2CC[C@@]3(CCCN(C(=O)Oc4ccccc4)C3)C2)cc1', 'Cytochrome P450 2D6 (Homo sapiens) (UniProt P10635)', 'active');

## Input Which outcome did this test record for the molecule "C=CCn1c(O)c(C(C)=NCCCN2CCOCC2)c(=O)[nH]c1=O" ?
## Output inactive

----------
TARGET DESC: Cytochrome P450 2D6 (Homo sapiens)
TEST: Cytochrome panel assay with activity outcomes; on activity, negative = inhibition: on the % scale 0 is the no-effect control and ±100 the full control effect
RUN PARAMETERS: recombinant CYP, pro-luciferin dealkylation, luminescence, p450-cyp2d6; series mostly up to 57.1 µM
The campaign covered roughly 16,000 compounds. About 2,600 (16%) were called active. About 20% were inconclusive and are not listed. For the sample, actives were picked, then their nearest neighbours and some compounds at random.
QUANTITY: activity, negative = inhibition

Example entries and their recorded answers appear below.
INSERT INTO assay_data (compound, quantity, result) VALUES
  ('COc1ccc2cc1Oc1ccc(cc1)C[C@H]1c3cc(c(OC)cc3CCN1C)Oc1c(OC)c(OC)cc3c1[C@@H](C2)N(C)CC3', 'activity, negative = inhibition', '-16.9% [at 11.4 µM] (inactive)'),
  ('CN(C)[C@@H]1C(=O)C(C(N)=O)=C(O)[C@]2(O)C(=O)C3=C(O)c4c(O)cccc4[C@](C)(O)[C@H]3C[C@@H]12', 'activity, negative = inhibition', '-6.07% [at 11.4 µM] (inactive)'),
  ('CC(=O)O/C(=C1/C[C@H]2[C@@H]3CC=C4C[C@@H](OC(C)=O)CC[C@]4(C)[C@@H]3CC[C@]2(C)C1=O)C(F)(F)F', 'activity, negative = inhibition', '-5.95% [at 11.4 µM] (inactive)'),
  ('CC(C)(O)/C=C\C(=O)[C@](C)(O)[C@H]1[C@H](O)C[C@]2(C)[C@@H]3CC=C4[C@@H](C=C(O)C(=O)C4(C)C)[C@]3(C)C(=O)C[C@@]12C', 'activity, negative = inhibition', '-2.8% [at 11.4 µM] (inactive)'),
  ('C[C@@H]1O[C@H](OC2[C@@H](O)[C@H](O)C(O)[C@H](O)[C@H]2O)[C@@H](N)C[C@@H]1N=C(N)C(=O)O (some centres not stated)', 'activity, negative = inhibition', '3.95% [at 11.4 µM] (inactive)');

## Input Which measured activity, negative = inhibition value corresponds to "O=NN(Cc1ccc(Cl)cc1)[C@@H](C(=O)O)c1ccccc1" ?
## Output 6.33% [at 11.4 µM] (inactive)

## Input Which measured activity, negative = inhibition value corresponds to "C1C[C@@H]2CN(CCCN3CCOCC3)[C@@H](C1)O2" ?
## Output -5.61% [at 11.4 µM] (inactive)

----------
TARGET DESC: Cytochrome P450 2D6 (Homo sapiens) (UniProt P10635)
TEST: Cytochrome panel assay with activity outcomes
RUN PARAMETERS: recombinant CYP, pro-luciferin dealkylation, luminescence, p450-cyp2d6; series mostly up to 57.1 µM
Procedure: The P450 gene superfamily is involved in the metabolism and clearance of xenobiotics. This assay used various human CYP P450 isozymes to measure the dealkylation of various pro-luciferin substrates to luciferin. The luciferin is then measured by luminescence after the addition of a luciferase detection reagent. […] Inhibitors and some substrates limit the production of luciferin, and decrease measured luminescence. […] 8, Detection, 1 sec, ViewLux luminescent read […]
Out of some 16,000 compounds screened, about 2,600 (16%) were called active. Another 20% or so got no clear call; they are omitted. Calls follow the shape of the dose curve; as a rule, active = well fitted curve in the direction sought with a large enough effect; inconclusive = small, poorly fitted or top-dose-only effect, or effect the other way; inactive = no such curve, though single readings can be large or run the other way. The entries come from a sample that favours actives as a whole.
Entry note: the call must match one of true (1) = active, false (0) = inactive

Study these solved cases before continuing.
INSERT INTO assay_data (molecule_smiles, label_value) VALUES
  ('O=C(Cn1ncc2ccsc2c1=O)N1CCC2(CC1)OCCO2', 'false (0)'),
  ('c1ccc(N2CCCC3(CCNCC3)C2)cc1', 'true (1)'),
  ('C[C@@H](N)Cn1ccc2cc(F)c(Cl)cc21', 'false (0)');

## Input Which outcome did this test record for the compound "CCn1c(O)c(C(c2ccccn2)c2c(O)n(CC)c(=S)[nH]c2=O)c(=O)[nH]c1=S" ?
## Output false (0)

## Input Which outcome did this test record for the compound "O=C(CCN1CC2CCC(CC2)C1)c1cccs1" ?
## Output true (1)

## Input Which outcome did this test record for the compound "c1cc(CN2CCC3(CCNCC3)CC2)ccn1" ?
## Output false (0)

## Input Which outcome did this test record for the compound "O=C(Nc1ccc(F)cc1F)c1cccnc1Oc1cccc(C(F)(F)F)c1" ?
## Output false (0)

## Input Which outcome did this test record for the compound "N[C@@H](CCCCP(=O)(O)O)C(=O)O" ?
## Output false (0)

## Input Which outcome did this test record for the compound "C=Cn1ccnc1P(=S)(c1nccn1C=C)C1CCCCC1" ?
## Output false (0)

## Input Which outcome did this test record for the compound "c1ccc(CN2CCC3(CCc4ccccc43)CC2)cc1" ?
## Output true (1)

## Input Which outcome did this test record for the compound "CS(=O)(=O)Nc1ccc(Cc2noc(-c3ccc4[nH]cc(CCN)c4c3)n2)cc1" ?
## Output true (1)

## Input Which outcome did this test record for the compound "COc1cc(CNC(=O)CCCC/C=C\C(C)C)ccc1O" ?
## Output false (0)
